conditions: in water, 323.15 K
measured endpoint: solubility (mole fraction)
I'd appreciate a reply containing only the number, no unit.

Fill in the blank: the reported solubility (mole fraction) of OC(Cn1cncn1)(Cn1cncn1)c1ccc(F)cc1F is ____.
0.000104

###

settings: in ethanol, 293.15 K
measured endpoint: solubility (mole fraction)
Keep the answer to the number alone.

solubility (mole fraction) for OC(Cn1cncn1)(Cn1cncn1)c1ccc(F)cc1F ?
0.0105

###

settings: in water, 293.15 K
measured endpoint: solubility (mole fraction)

So what's the measured solubility (mole fraction) for this one? OC(Cn1cncn1)(Cn1cncn1)c1ccc(F)cc1F
7.76e-05

###

conditions: in ethanol, 298.15 K
measured endpoint: solubility (mole fraction)
Answer with a bare number; do not write a unit.

Entry OC(Cn1cncn1)(Cn1cncn1)c1ccc(F)cc1F has what solubility (mole fraction)?
0.0123

###

conditions: in ethanol, 323.15 K
measured endpoint: solubility (mole fraction)
Number, no unit, nothing else.

Give the measured solubility (mole fraction) of OC(Cn1cncn1)(Cn1cncn1)c1ccc(F)cc1F .
0.0282

###

conditions: in ethanol, 318.15 K
measured endpoint: solubility (mole fraction)
Respond with the number and no other words.

Return reported solubility (mole fraction); argument: OC(Cn1cncn1)(Cn1cncn1)c1ccc(F)cc1F
0.023

###

details: in water, 308.15 K
measured endpoint: solubility (mole fraction)

I am curious: what solubility (mole fraction) value has been reported for OC(Cn1cncn1)(Cn1cncn1)c1ccc(F)cc1F ?
8.58e-05

###

conditions: in water, 318.15 K
measured endpoint: solubility (mole fraction)

Find the recorded solubility (mole fraction) belonging to OC(Cn1cncn1)(Cn1cncn1)c1ccc(F)cc1F and report it.
9.59e-05

###

details: in water, 298.15 K
measured endpoint: solubility (mole fraction)

Query (compound): OC(Cn1cncn1)(Cn1cncn1)c1ccc(F)cc1F ; field requested: solubility (mole fraction)
7.99e-05
